Numbers sourced from patent US20200147235A1.

Reported koff values follow for various binders
# measurement-target: T1, Cynomolgus monkey CD98 ECD with C-terminal His-tag (cynomolgus monkey, UniProt P08195 105-529 (human entry))
# T1 construct: The entry includes the linker and the polyhistidine tag; also called cyCD98 ECD
# T1 chain: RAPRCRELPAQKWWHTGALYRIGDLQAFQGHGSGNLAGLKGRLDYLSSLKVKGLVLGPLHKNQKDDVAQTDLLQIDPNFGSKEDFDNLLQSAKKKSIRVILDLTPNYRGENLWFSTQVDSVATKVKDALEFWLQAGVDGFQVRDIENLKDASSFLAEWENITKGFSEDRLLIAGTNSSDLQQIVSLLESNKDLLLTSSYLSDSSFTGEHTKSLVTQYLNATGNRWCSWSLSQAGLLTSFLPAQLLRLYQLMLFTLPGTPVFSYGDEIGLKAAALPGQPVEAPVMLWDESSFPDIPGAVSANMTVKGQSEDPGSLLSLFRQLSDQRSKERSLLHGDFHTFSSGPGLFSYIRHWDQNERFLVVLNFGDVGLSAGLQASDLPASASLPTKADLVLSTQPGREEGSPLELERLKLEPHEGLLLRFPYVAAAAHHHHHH
# method-summary: SPR (Biacore), antibody captured on anti-Fc surface, CD98 ECD in solution
# Protocol: The binding kinetics of these purified mouse and rat monoclonal anti-CD98 antibodies for purified recombinant CD98 protein (extracellular domain. ECD) were determined by surface plasmon resonance-based measurements made on Biacore T100/T200 instruments (GE Healthcare, Piscataway, N.J.) at 25° C. using an anti-Fc capture assay approach. Binding kinetic measurements were made in the assay buffer HBS-EP+: 10 mM Hepes, pH 7.4, 150 mM NaCl, 3 mM EDTA, 0.05% Tween 20). […]

>  <binder>
huAb15v4 (antibody, V domains shown, Humanized, further engineered clone of chAb15, converted to IgG and expressed as a full-length antibody) VH: EVQLVESGGGVVQPGRSLRLSCAASGFTFSDYTMAWVRQAPGKGLEWVATIIYTGRGTYYRDAVKGRFTISRDNSKSTLYLQMNSLRAEDTAVYYCARQSDDTYYYWGYFDYWGQGTMVTVSS VL: DIVMTQSPDSLAVSLGERATINCKSSQSLLFSGNQKNYLAWYQQKPGQSPKLLIYWASTRQSGVPDRFSGSGSGTDFTLTIRSLQAEDVAIYYCQQYYDVPYTFGQGTKLEIK

>  <unit-abbreviation>
s⁻¹

>  <koff>
5e-05

$$$$
>  <binder>
huAb15v2 (antibody, V domains shown, Humanized, further engineered clone of chAb15, converted to IgG and expressed as a full-length antibody) VH: EVQLVESGGGVVQPGRSLRLSCAASGFTFSDYTMAWVRQAPGKGLEWVATIIYSGRGTYYRDAVKGRFTISRDNSKSTLYLQMNSLRAEDTAVYYCARQSDDTYYYWGYFDYWGQGTMVTVSS VL: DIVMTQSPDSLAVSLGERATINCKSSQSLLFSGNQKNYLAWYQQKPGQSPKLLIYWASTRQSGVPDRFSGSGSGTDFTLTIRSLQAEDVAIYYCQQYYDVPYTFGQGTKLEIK

>  <unit-abbreviation>
s⁻¹

>  <koff>
4.8e-05

$$$$
>  <binder>
huAb15v7 (antibody, V domains shown, Humanized, further engineered clone of chAb15, converted to IgG and expressed as a full-length antibody) VH: EVQLVESGGGVVQPGRSLRLSCAASGFTFSDYTMAWVRQAPGKGLEWVATIIYDARGTYYRDAVKGRFTISRDNSKSTLYLQMNSLRAEDTAVYYCARQSDDTYYYWGYFDYWGQGTMVTVSS VL: DIVMTQSPDSLAVSLGERATINCKSSQSLLFSGNQKNYLAWYQQKPGQSPKLLIYWASTRQSGVPDRFSGSGSGTDFTLTIRSLQAEDVAIYYCQQYYGSPYTFGQGTKLEIK

>  <unit-abbreviation>
s⁻¹

>  <koff>
0.00043

$$$$
